IC50, ACK1 (Homo sapiens), per-entry values.
MEASUREMENT NAME: IC50 (µM)

Example entries and their recorded answers appear below.
- GIVEN SMILES: "C=CCNC(=O)c1cc2n(c1)CCc1c(NC(=O)c3ccccc3C)n[nH]c1-2"
  READING UNIT: "µM"
  IC50: 3.34
- GIVEN SMILES: "COCCNC(=O)c1cc2n(c1)CCCc1c(NC(=O)c3ccccc3Cl)n[nH]c1-2"
  READING UNIT: "µM"
  IC50: 2.47
- GIVEN SMILES: "Cc1ccc(C(=O)Nc2n[nH]c3c2CCn2cc(C(=O)N4CCOCC4)cc2-3)c(C)c1"
  READING UNIT: "µM"
  IC50: 5.91

P: Cc1ccc(C(=O)Nc2n[nH]c3c2CCn2cc(C(=O)NC(C)C)cc2-3)c(C)c1
Q: Cc1ccc(C(=O)Nc2n[nH]c3c2CCn2cc(C(=O)NC4CC4)cc2-3)c(C)c1
R: COc1ccccc1C(=O)Nc1n[nH]c2c1CCn1cc(C(=O)N3CCCC3)cc1-2
Hey, quick one: sort these by IC50, low to high? To answer, arrange all of the labels according to the requested order.
R, P, Q
(R: 1.89 µM, P: 3.13 µM, Q: 6.56 µM)
